molecular target: Glutamate receptor 2 (Homo sapiens, UniProt P42262); experiment: Positive allosteric modulation of human GluA2 AMPAR flop isomer expressed in Dox-inducible cells measured every 5 mins by BD calcium indicator dye based-fluorescence analysis in presence of glutamate; format: cell-based
Sequence (P42262 whole entry): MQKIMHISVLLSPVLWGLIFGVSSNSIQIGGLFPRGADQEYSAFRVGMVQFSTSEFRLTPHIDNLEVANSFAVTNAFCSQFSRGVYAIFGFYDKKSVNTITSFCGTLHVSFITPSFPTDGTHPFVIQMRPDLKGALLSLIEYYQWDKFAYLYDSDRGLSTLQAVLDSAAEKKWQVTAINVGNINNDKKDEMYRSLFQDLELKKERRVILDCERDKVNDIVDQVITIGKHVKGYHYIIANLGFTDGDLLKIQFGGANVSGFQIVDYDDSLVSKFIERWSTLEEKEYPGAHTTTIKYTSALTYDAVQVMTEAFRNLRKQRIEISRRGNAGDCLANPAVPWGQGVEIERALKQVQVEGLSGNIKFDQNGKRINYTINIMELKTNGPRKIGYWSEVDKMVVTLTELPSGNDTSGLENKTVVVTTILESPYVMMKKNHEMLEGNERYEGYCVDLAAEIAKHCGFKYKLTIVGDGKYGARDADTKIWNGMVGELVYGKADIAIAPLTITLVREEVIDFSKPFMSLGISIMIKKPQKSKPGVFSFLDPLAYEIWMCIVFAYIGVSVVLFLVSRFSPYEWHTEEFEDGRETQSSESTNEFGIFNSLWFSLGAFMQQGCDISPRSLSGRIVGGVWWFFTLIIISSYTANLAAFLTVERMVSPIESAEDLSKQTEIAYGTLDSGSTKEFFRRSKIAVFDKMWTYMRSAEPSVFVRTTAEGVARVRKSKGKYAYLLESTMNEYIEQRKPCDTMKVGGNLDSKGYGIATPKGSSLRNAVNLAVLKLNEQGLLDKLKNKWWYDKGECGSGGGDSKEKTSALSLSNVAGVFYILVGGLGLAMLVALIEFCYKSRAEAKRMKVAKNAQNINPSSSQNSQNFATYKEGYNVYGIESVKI
Give measured pEC50 for each item. Keep answers brief.
Keep it numeric: pEC50 is minus log10 of the concentration in mol/L.

Ask | Would you mind telling me what pEC50 value was observed for CCN(Cc1cc(=O)n2c(C3CC3)c(C)sc2n1)c1ccc(F)cc1 ?
Reply | 5.01

Ask | What do you get for CCN(Cc1cc(=O)n2c(C(C)O)c(C)sc2n1)c1ccc(F)cc1 (racemic) ?
Reply | 5.26

Ask | What do you get for CCNC(=O)c1c(C)sc2nc(Cc3cccc(C(F)(F)F)c3)cc(=O)n12 ?
Reply | 4.18

Ask | What do you get for CCCN(Cc1cc(=O)n2c(C(=O)NCC)c(C)sc2n1)c1ccc(F)cc1 ?
Reply | 4.31

Ask | What do you get for CCN(Cc1cc(=O)n2c(C#N)c(C)sc2n1)c1ccc(F)cc1 ?
Reply | 4.97

Ask | What do you get for CCN(Cc1cc(=O)n2c(CCO)c(C)sc2n1)c1ccc(F)cc1 ?
Reply | 6.24

Ask | What do you get for CCNC(=O)c1c(C)sc2nc(Cn3nc(C(F)(F)F)cc3C3CC3)cc(=O)n12 ?
Reply | 5.19

Ask | What do you get for CCN(Cc1cc(=O)n2c(C(C)=O)c(C)sc2n1)c1ccc(F)cc1 ?
Reply | 5.03

Ask | What do you get for CCNC(=O)c1c(C)sc2nc(Cc3cccc(C(F)(F)F)c3F)cc(=O)n12 ?
Reply | 4.53

Ask | What do you get for Cc1sc2nc(Cn3nc(C(F)(F)F)cc3Cl)cc(=O)n2c1[C@@H]1C[C@H]1CO ?
Reply | 7.32
